Sourced from patent US10221163B2

Biological target: IMP-1 (Serratia marcescens)
Sequence (P52699 whole entry, looked up, species assumed): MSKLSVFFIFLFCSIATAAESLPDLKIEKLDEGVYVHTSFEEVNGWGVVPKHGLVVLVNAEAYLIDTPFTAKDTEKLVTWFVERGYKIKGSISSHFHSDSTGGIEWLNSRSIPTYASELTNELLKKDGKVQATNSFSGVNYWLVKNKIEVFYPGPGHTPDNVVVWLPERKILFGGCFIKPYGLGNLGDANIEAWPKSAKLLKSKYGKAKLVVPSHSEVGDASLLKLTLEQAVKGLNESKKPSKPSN
Assay: biochemical
Assay type: biochemical
Settings: fluorescence assay, CCF2-FA substrate, 2 pM enzyme, 2 hours at 25° C.; read-out: IMP-1 IC50
pIC50: −log10 of the molar value.
Short version: pIC50 at least 9 is Fulfilled, less is Not fulfilled.

As a guide, the following entries are already answered.
NCCNc1ncccc1-c1ccc(S(=O)(=O)N[C@@H]2CCNC2)c(S(N)(=O)=O)c1-c1nn[nH]n1 :: Not fulfilled
Nc1nc2c(-c3ccc(S(=O)(=O)NCC4COCCN4)c(S(N)(=O)=O)c3-c3nn[nH]n3)cccc2[nH]1 (stereo not shown) :: Fulfilled
Nc1ccc(-c2ccc(S(=O)(=O)N[C@@H]3CCCNC3)c(S(N)(=O)=O)c2-c2nn[nH]n2)cn1 :: Fulfilled
C[C@@H](CN)NS(=O)(=O)c1ccc(-c2cccc3[nH]c(N)nc23)c(-c2nn[nH]n2)c1S(N)(=O)=O :: Not fulfilled

Next:
Ask: Hi, just wondering whether Nc1nc2c(-c3ccc(S(=O)(=O)NCCN4CCCCC4=O)c(S(N)(=O)=O)c3-c3nnn[nH]3)cccc2s1 shows pIC50 of 9 or higher.
Reply: Fulfilled
